# targetSystem: HDAC6 (Homo sapiens, UniProt Q9UBN7)
# Sequence (Q9UBN7 whole entry): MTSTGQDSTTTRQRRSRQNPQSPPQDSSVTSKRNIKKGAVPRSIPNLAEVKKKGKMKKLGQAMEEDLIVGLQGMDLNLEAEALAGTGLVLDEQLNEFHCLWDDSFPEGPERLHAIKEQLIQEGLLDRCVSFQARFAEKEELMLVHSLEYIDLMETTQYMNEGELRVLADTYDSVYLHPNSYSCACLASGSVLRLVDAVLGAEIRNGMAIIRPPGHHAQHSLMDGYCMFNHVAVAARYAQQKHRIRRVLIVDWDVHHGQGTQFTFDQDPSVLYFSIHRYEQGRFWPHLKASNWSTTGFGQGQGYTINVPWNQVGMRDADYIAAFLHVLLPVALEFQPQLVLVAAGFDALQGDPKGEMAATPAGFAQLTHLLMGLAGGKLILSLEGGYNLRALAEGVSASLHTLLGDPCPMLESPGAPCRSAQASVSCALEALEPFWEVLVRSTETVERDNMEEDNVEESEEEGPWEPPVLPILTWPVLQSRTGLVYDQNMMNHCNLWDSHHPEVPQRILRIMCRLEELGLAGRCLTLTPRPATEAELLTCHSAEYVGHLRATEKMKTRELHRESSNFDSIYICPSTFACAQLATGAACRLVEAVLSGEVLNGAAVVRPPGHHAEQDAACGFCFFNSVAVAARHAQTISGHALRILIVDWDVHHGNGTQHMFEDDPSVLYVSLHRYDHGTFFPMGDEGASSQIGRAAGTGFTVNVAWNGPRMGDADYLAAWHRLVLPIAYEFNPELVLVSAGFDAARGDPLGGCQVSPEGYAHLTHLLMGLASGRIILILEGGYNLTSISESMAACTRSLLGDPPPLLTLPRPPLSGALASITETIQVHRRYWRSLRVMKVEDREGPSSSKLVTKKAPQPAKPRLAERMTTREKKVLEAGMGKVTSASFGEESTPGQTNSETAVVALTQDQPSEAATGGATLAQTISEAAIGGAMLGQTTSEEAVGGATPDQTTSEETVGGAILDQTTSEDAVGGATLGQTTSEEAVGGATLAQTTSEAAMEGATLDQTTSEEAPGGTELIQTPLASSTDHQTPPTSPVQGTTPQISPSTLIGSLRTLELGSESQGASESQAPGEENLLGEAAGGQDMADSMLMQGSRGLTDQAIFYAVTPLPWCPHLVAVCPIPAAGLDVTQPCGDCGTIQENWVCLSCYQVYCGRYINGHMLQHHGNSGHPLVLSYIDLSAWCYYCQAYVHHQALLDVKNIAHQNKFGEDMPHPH
# experiment: HDAC inhibitory activity, fluorescence-coupled acetylated peptide substrate assay
# Assay type: biochemical
# runConditions: Table 2
pIC50: −log10 of the molar value.
Attribute: pIC50
experimentalReadout: pIC50

inputsmiles=Cc1nc(N(C)c2cccc(OCCCCC(=O)NO)c2)c2ccccc2n1 result="6.00 to 7.00"
inputsmiles=Cc1nc(N(C)c2cccc(OCCCCCC(=O)NO)c2)c2ccccc2n1 result="7.00 to 8.00"
inputsmiles=Cc1nc(N(C)c2ccc(OCCCC(=O)NO)cc2)c2ccccc2n1 result="6.00 to 7.00"
